target: Mitochondrial respiratory complex II (Mus musculus, UniProt Q8K2B3+Q9CQA3+Q9CXV1+Q9CZB0); test: Complex II inhibition assay
Sequence (Q8K2B3 43-664): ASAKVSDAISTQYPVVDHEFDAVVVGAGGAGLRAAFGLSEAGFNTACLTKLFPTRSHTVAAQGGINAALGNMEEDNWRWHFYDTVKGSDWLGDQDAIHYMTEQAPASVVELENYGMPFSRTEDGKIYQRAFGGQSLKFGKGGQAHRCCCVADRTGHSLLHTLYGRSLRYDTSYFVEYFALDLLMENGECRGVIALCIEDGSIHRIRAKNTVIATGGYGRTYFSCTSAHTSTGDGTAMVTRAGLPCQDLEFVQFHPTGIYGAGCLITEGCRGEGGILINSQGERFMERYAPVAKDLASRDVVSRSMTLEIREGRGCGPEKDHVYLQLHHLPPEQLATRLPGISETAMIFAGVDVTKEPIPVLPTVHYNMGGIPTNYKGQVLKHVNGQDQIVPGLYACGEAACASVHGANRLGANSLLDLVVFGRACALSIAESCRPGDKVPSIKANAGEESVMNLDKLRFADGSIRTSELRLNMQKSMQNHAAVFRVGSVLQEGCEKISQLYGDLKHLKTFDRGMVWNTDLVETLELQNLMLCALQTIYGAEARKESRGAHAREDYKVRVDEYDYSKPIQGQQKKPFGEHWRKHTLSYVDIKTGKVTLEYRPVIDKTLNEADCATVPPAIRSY
Sequence (Q9CQA3 31-282): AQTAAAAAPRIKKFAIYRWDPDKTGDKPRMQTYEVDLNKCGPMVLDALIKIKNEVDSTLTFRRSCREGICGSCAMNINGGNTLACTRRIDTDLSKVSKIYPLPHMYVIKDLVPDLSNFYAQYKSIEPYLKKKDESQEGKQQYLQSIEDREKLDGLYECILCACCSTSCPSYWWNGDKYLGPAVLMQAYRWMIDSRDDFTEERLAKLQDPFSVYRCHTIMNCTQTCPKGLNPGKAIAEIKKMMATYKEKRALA
Sequence (Q9CZB0 30-169): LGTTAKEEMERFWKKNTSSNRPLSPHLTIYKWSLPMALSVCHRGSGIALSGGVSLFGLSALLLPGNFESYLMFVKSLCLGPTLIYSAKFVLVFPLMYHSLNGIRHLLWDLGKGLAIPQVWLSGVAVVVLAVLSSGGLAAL
Sequence (Q9CXV1 57-159): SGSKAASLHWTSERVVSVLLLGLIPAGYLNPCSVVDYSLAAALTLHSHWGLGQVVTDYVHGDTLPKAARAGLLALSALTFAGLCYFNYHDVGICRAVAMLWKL
Entries whose IC50 is below 80 µM take Yes; entries at or above 80 µM take No.

| COMPOUND | ASSIGNED CLASS |
| --- | --- |
| CC1=Nc2ccc(Cl)cc2S(=O)(=O)N1 [Diazoxide, reference compound] | No |
| O=S1(=O)NC(=S)Nc2cc(Cl)ccc21 [Compound 12b] | Yes |
| CC(NC1=NS(=O)(=O)c2ccc(Cl)cc2N1)c1ccccc1 (stereo not drawn) [Compound 24b] | No |
| O=S1(=O)NC(=S)Nc2ccc(Br)cc21 [Compound 12c] | Yes |
